Origin of values: patent US12655116B2

pest or weed control at 80 g/ha reference
Test system: PHBPU
test-name: Pre-emergence herbicidal action against PHBPU
Format: in vivo, Pharbitis purpurea
test-parameters: Ipomoea purpurea, 504 h, dosage 80 g/ha
Description: Seeds of monocotyledonous and dicotyledonous weed plants and crop plants are laid out in sandy loam soil in wood-fiber pots and covered with soil. […] The damage to the test plants is scored visually after a test period of 3 weeks by comparison with untreated controls (herbicidal activity in percent (%): 100% activity=the plants have died, 0% activity=like control plants). […]
Quick reminder: number only, in %, skip the unit.

- Cc1c(C(=O)Nc2nnnn2C)ccc(C(F)(F)F)c1C(=O)NC1CC1: 100
- CNC(=O)c1c(C(F)(F)C(F)(F)F)ccc(C(=O)Nc2nnnn2C)c1Cl: 100
- Cn1nnnc1NC(=O)c1ccc(C(F)F)c(C(=O)NC2CC2)c1C1CC1: 90
- CC(C)NC(=O)c1c(C(F)F)ccc(C(=O)Nc2nnnn2C)c1Cl: 100
- CCn1nnnc1NC(=O)c1ccc(C(F)F)c(C(=O)NC(C)C)c1C: 80
- Cn1nnnc1NC(=O)c1ccc(C(F)(F)F)c(C(=O)NC2CC2)c1C1CC1: 100

Let us move to another entry and its pest or weed control at 80 g/ha.
Endpoint output: pest or weed control at 80 g/ha of CCCn1nnnc1NC(=O)c1ccc(C(F)(F)F)c(C(=O)NC)c1Cl . Value? 90

* * *

Test system: SETVI
test-name: Post-emergence herbicidal action against SETVI
Format: in vivo, Setaria viridis
test-parameters: dosage 20 g/ha
Post-emergence action against SETVI in % reference
Quick reminder: number only, in %, skip the unit.

• Cn1nnnc1NC(=O)c1ccc(C(F)(F)F)c(C(=O)NCC(F)F)c1C1CC1 [Example 1-291] = 80
• CCn1nnnc1NC(=O)c1ccc(C(F)(F)F)c(C(=O)NCC2CC2)c1Br [Example 2-210] = 80

Let us move to another entry and its Post-emergence action against SETVI in %.
Endpoint output: Post-emergence action against SETVI in % of CSc1c(C(=O)Nc2nnnn2C)ccc(C(F)(F)F)c1C(=O)NC(C)C1CC1 (stereo not drawn) [Example 1-352] . Value? 100

* * *

Pre-emergence action against VERPE in % reference
System: VERPE
test-name: Pre-emergence herbicidal action against VERPE
Assay type: in vivo, Veronica persica
test-parameters: dosage 80 g/ha
Quick reminder: number only, in %, skip the unit.

Before answering, review these 2 worked examples.
- CCn1nnnc1NC(=O)c1ccc(C(F)(F)F)c(C(=O)NCC2CCCO2)c1C (stereo not drawn): 80
- CCn1nnnc1NC(=O)c1ccc(C(F)(F)F)c(C(=O)NCC2CC2)c1C: 80

Let us move to another entry and its Pre-emergence action against VERPE in %.
Endpoint output: Pre-emergence action against VERPE in % of CCc1c(C(=O)Nc2nnnn2CC)ccc(C(F)(F)F)c1C(=O)NC(C)C1CC1 (stereo not drawn) . Value? 90
